Values from PubChem BioAssay (EPA / NIEHS)

- Read-out: Vascular endothelial growth factor receptor 2 (Homo sapiens) (UniProt P35968)
- EXPERIMENTAL PROTOCOL: BSK_4H_VEGFRII: BioMAP Diversity Plus: 4H Assay for Vascular endothelial growth factor receptor 2 (VEGFR2) Biomarker Activity (AID 2283031)
- CONDITION: primary human endothelial cells (HUVEC); actives raise or lower the signal
The source made the active and inactive calls. How the source made its calls: active means hit-call score of the fitted dose curve at least 0.9, where 1 is the maximum; inactive means score below 0.9.
Outcomes: active, inactive

1. CC(C)Oc1cc(-n2nc(C(C)(C)C)oc2=O)c(Cl)cc1Cl	active
2. Fc1ccc(Oc2ccnc3cc(Cl)cc(Cl)c23)cc1	active
3. C=CCC1=C(C)[C@@H](OC(=O)[C@@H]2[C@@H](C=C(C)C)C2(C)C)CC1=O	active
4. O=C(O)COc1nc(Cl)c(Cl)cc1Cl	inactive
5. C#CCOS(=O)OC1CCCCC1Oc1ccc(C(C)(C)C)cc1 (configuration not stated)	active
6. Oc1ccccc1-c1ccccc1	inactive
7. COC(=O)C=C(C)OP(=O)(OC)OC	inactive
8. OC(c1ccc(Cl)cc1)(c1cncnc1)c1ccccc1Cl (configuration not stated)	inactive
9. N#Cc1nn(-c2c(Cl)cc(C(F)(F)F)cc2Cl)c(N)c1S(=O)C(F)(F)F (configuration not stated)	active
10. CCNc1nc(Cl)nc(NC(C)C)n1	inactive
11. COc1nc(C)nc(NC(=O)NS(=O)(=O)c2ccccc2Cl)n1	inactive
12. CNC(=O)ON=CC(C)(C)SC	inactive

---

- EXPERIMENTAL PROTOCOL: CCTE_Shafer_MEA_acute_cross_correlation_HWHM: CCTE's Neural Acute Assay for Cross Correlation at Half Width at Half Maximum, Shafer Lab (AID 2284026);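 further: percent change per well from pre-dose baseline in spike cross-correlogram half width; hits are a decrease in cross-correlogram half width relative to DMSO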
- Procedure: CCTE_Shafer_MEA_acute assay is conducted using Axion Biosystems 48 well microelectrode array (MEA) plates and Maestro recording system. Each well of the MEA plate contains a grid of 16 microelectrodes embedded in the culture surface. Electrically active cells, such as neurons, can be cultured over the electrodes, and electrical activity in these cells can be recorded extracellularly. […]
Activity calls are given as the source filed them. How the source made its calls: active means hit-call score of the fitted dose curve at least 0.9, where 1 is the maximum; inactive means score below 0.9.
Outcomes: label 1 (active), label 0 (inactive)

1) O=C(O)c1nc(Cl)ccc1Cl	label 0
2) CCCN(CCC)c1c([N+](=O)[O-])cc(S(N)(=O)=O)cc1[N+](=O)[O-]	label 1
3) CON(C)C(=O)Nc1ccc(Cl)c(Cl)c1	label 1
4) CC(C)Oc1cc(-n2nc(C(C)(C)C)oc2=O)c(Cl)cc1Cl	label 0
5) CS/C(C)=N/OC(=O)N(C)SN(C)C(=O)O/N=C(\C)SC	label 0
6) CC(C)(C)c1ccc(CSc2cnn(C(C)(C)C)c(=O)c2Cl)cc1	label 1
7) CCOP(=S)(OCC)SCn1c(=O)oc2cc(Cl)ccc21	label 0
8) C#CCOS(=O)OC1CCCCC1Oc1ccc(C(C)(C)C)cc1 (centres undefined)	label 1
9) COP(N)(=O)SC (centres undefined)	label 0

---

- Read-out: Fatty Acid-Binding Protein 1 (FABP1), FABP1 (gene 2168)
- EXPERIMENTAL PROTOCOL: LTEA_HepaRG_FABP1: Life Technologies and Expression Analysis (LTEA) Assay for Fatty Acid-Binding Protein 1 (FABP1) using HepaRG (AID 2283494)
- CONDITION: mRNA level, 48 h; actives raise or lower the signal
The source made the active and inactive calls. How the source made its calls: active means hit-call score of the fitted dose curve at least 0.9, where 1 is the maximum; inactive means score below 0.9.
REPORTED PROPERTY: AC50

1. OC(c1ccc(Cl)cc1)(c1cncnc1)c1ccccc1Cl (configuration not stated)	80.4 µM (active)
2. Cc1cc(Cl)ccc1OCC(=O)O	inactive
3. N#Cc1nn(-c2c(Cl)cc(C(F)(F)F)cc2Cl)c(N)c1S(=O)C(F)(F)F (configuration not stated)	24.1 µM (active)
4. Fc1ccc(Oc2ccnc3cc(Cl)cc(Cl)c23)cc1	87 µM (active)
5. COC(=O)N(OC)c1ccccc1COc1ccn(-c2ccc(Cl)cc2)n1	80.4 µM (active)
6. CN(C)C(=S)SSC(=S)N(C)C	inactive
7. CCOc1cc(Oc2ccc(C(F)(F)F)cc2Cl)ccc1[N+](=O)[O-]	30.4 µM (active)
8. CC(C)Oc1cc(-n2nc(C(C)(C)C)oc2=O)c(Cl)cc1Cl	19.4 µM (active)
9. C=CCC1=C(C)[C@@H](OC(=O)[C@@H]2[C@@H](C=C(C)C)C2(C)C)CC1=O	50 µM (active)
10. CON(C)C(=O)Nc1ccc(Cl)c(Cl)c1	37.6 µM (active)
11. N#Cc1cc(Br)c(O)c(Br)c1	13 µM (active)
12. C#CCOS(=O)OC1CCCCC1Oc1ccc(C(C)(C)C)cc1 (configuration not stated)	18.7 µM (active)
